Quick reference for z-score among some compounds
# assay-details: basal 3T3-L1 adipocyte mitochondrial potential changes, profiling panel, cell-based, JC-1 fluorescence, 3T3-L1 adipocytes, 24 h, 100 nL compound (AID 1168); further: test concentration not given here
# assay-conditions: JC-1 mitochondrial fluorescence, higher = more signal, called active from +8 up or from −8 down
Please reply with the value in numeric form only.

Indicate the recorded z-score value for this compound: O=C1[C@]2(CO)C=C(Br)[C@@H](C[C@@H]2c2ccccc2)[C@@]12CO2
-0.435

Item C=CCOC(=O)[C@@H]1[C@H]2C(=O)O[C@H](c3ccccc3)[C@H](c3ccccc3)N2[C@H](c2ccc(OCCOC(=O)[C@@H]3C[C@@H]4C(=O)N[C@@H](Cc5ccccc5)C(=O)N4[C@@H]3c3cccc(OCCO)c3)cc2)[C@@]12C(=O)Nc1ccc(I)cc12 : provide z-score
0.235

Check the records and state z-score for COC(=O)[C@@]1(Cc2ccc(F)cc2)[C@H]2c3cc(C(=O)N(C)C)n(CCc4ccccn4)c3C[C@H]2CN1C(=O)c1ccccc1
-0.539

Note down z-score recorded for CO[C@H]1O[C@H](CO)[C@@H](OC(=O)Nc2ccc(Oc3ccccc3)cc2)[C@H](OC(=O)Nc2ccccc2)[C@H]1OC(=O)Nc1ccccc1
1.2

---

# test-system: Neurogenic locus notch homolog protein 3 (Homo sapiens)
# assay-details: NOTCH3 binders on small-molecule microarray, primary screen, biochemical, 635/667 nm fluorescence (AID 1096)
# assay-conditions: NOTCH3 binding, 635 nm fluorescence, higher = more signal
The entries below come with measured composite z-score values attached.
Give the figure only, with no unit attached.

• CN(C)C(=O)[C@]1(CCC(=O)OC(C)(C)C)N=C(c2ccc(OCCCO)cc2)O[C@@H]1c1ccccc1N=[N+]=[N-] = 0.684

Quickly give me recorded composite z-score for CC(C)NC(=O)[C@@]1(Cc2ccccc2I)c2ccccc2C(=O)N(Cc2ccccc2)[C@H]1c1ccc(CO)cc1
1.09

Report composite z-score for [N-]=[N+]=NCc1ccccc1C[C@]1(C(=O)NCCN2CCOCC2)N=C(c2ccc(OCCCO)cc2)O[C@H]1c1ccccc1N=[N+]=[N-]
1.1

Specify reported composite z-score for the compound shown: CC(=CC1CCCCC1)[C@@H](NC(=O)c1ccc(C(F)(F)F)cc1)c1ccc(-c2ccccc2)cc1
-0.779

---

# test-system: Concanavalin-A (Canavalia ensiformis)
# assay-details: ConA small-molecule binders, primary screen, artefact control for SMM control protein annotation, biochemical, small-molecule microarray, Alexa647 label, 635 nm (AID 1127);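 further: z combines 667 nm emission intensity with signal-to-noise across three replicate slides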
# assay-conditions: ConA-A647 binding fluorescence, higher = more signal
The entries below come with measured composite z-score values attached.

- COc1ccc(C#Cc2ccc3c(c2)[C@]2(C(=O)N3)[C@H](C(=O)NC[C@H](O)c3ccccc3)[C@H]3C(=O)O[C@H](c4ccccc4)[C@H](c4ccccc4)N3[C@@H]2c2ccc(OCCO)cc2)cc1: 1.17
- COc1ccc(C(=O)Nc2cccc(CN3C(=O)[C@@]4(O[C@@H](CCn5cc(CCO)nn5)[C@H]([Si](C)(C)c5ccc(OC)cc5)[C@H]4C)c4ccccc43)c2)cc1: 1.08

As a next step, examine the molecule that follows.
Tell me measured composite z-score for COCCOC(=O)N1C(=O)[C@@]2(c3ccccc31)[C@H](C(=O)NC[C@H](O)c1ccccc1)[C@H]1C(=O)O[C@H](c3ccccc3)[C@H](c3ccccc3)N1[C@@H]2c1ccc(OCCO)cc1 please.
1.12

Values compiled from PubChem BioAssay.
